Values from patent US10472356B2

# TARGET_SYSTEM: human Nav1.7 (Homo sapiens, UniProt Q15858)
# Construct: expressed in transfected cells; host or cells: HEK293
# Sequence (Q15858 whole entry): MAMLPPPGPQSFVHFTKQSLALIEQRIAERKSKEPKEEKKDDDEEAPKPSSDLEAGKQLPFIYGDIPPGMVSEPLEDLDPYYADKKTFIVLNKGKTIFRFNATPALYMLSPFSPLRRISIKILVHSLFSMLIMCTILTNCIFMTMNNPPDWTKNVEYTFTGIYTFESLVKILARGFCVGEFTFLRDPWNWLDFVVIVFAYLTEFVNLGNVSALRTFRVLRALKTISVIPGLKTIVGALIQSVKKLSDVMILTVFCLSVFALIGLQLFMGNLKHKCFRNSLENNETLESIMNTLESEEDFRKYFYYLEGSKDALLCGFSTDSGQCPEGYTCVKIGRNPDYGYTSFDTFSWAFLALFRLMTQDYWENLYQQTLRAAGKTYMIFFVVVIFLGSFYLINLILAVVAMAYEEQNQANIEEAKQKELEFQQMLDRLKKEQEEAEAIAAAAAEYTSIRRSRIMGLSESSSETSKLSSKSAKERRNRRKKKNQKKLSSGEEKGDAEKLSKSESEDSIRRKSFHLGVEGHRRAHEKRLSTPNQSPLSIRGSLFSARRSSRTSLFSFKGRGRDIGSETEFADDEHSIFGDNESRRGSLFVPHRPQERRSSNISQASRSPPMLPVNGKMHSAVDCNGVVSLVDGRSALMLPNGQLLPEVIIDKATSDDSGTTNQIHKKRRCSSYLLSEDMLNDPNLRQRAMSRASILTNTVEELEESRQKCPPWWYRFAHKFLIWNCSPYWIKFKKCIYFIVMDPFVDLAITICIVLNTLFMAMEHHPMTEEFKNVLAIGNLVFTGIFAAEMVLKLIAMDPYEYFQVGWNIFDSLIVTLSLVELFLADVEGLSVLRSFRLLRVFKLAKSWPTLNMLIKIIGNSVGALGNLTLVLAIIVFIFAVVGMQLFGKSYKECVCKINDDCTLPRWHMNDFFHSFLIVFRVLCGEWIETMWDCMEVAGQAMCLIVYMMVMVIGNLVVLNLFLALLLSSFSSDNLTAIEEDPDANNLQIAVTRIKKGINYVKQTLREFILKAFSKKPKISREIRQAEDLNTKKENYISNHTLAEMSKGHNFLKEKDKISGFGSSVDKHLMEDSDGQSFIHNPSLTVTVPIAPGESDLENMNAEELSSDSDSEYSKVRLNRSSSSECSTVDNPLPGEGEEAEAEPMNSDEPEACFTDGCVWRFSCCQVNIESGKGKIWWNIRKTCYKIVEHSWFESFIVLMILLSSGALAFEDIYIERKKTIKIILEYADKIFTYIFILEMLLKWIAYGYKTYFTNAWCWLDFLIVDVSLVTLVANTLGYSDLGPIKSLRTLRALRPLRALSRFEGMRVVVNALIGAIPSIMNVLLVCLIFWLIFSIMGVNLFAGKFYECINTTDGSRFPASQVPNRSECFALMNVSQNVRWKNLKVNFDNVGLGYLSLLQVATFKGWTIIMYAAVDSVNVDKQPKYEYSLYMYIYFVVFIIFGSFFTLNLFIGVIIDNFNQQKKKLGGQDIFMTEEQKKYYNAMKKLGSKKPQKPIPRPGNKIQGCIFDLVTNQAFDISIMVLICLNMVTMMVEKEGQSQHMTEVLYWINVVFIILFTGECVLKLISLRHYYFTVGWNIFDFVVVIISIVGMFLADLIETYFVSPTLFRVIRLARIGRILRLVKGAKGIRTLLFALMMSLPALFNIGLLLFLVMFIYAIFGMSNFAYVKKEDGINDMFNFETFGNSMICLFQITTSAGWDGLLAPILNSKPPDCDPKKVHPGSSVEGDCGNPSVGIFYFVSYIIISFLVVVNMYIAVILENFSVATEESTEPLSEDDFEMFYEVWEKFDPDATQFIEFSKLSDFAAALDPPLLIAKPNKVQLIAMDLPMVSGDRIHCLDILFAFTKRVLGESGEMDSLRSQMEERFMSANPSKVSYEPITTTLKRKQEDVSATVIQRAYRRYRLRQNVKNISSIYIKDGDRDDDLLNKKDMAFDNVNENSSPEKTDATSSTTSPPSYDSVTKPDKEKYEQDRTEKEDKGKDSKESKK
# RUN_DESCRIPTION: Nav 1.7 In Vitro PatchXpress (PX) Assay
# Type: cell-based
# SETTINGS: HEK 293 cells stably transfected with human Nav1.7; PatchXpress whole cell voltage clamp; partially inactivated state (holding potential yielding 20 to 50% inactivation); read-out: hNav1.7 PX IC50
# Description: Nav 1.7 In Vitro PatchXpress (PX) Assay HEK 293 cells stably transfected with human Nav1.7 were recorded in whole cell voltage clamp mode with the PatchXpress automated electrophysiology system (Molecular Devices, LLC, Sunnyvale, Calif.). Compound effects were measured on a partially inactivated state of the sodium channel. […] Peak sodium current was measured at the end of the compound addition period to determine percent inhibition. […]

{"MOLECULE": "COc1cc(-c2cccc(Cl)c2OC)c(F)cc1-n1c2c(ccc1=O)CN(S(=O)(=O)Nc1cccnn1)CC2 [Example 65]", "IC50 / µM": 0.251}
{"MOLECULE": "COc1cc(-c2ccc(Cl)c(C)c2)c(F)cc1-n1c2c(ccc1=O)CN(S(=O)(=O)Nc1cccnn1)CC2 (racemic) [Example 33-(Rac)]", "IC50 / µM": 0.0533}
{"MOLECULE": "COc1cc(-c2cc(F)c(F)c(F)c2)c(F)cc1-n1c2c(ccc1=O)CN(S(=O)(=O)Nc1cccnn1)CC2 [Example 46]", "IC50 / µM": 0.102}
{"MOLECULE": "COc1cc(-c2cc(F)cc(Cl)c2)c(F)cc1-n1c2c(ccc1=O)CN(S(=O)(=O)Nc1cccc(F)n1)CC2 (racemic) [Example 13-(Rac)]", "IC50 / µM": 0.123}
{"MOLECULE": "COc1cc(-c2cc(F)cc(Cl)c2)c(F)cc1-n1c2c(ccc1=O)CN(S(=O)(=O)Nc1ccccn1)CC2 (racemic) [Example 11-(Rac)]", "IC50 / µM": 0.371}
{"MOLECULE": "COc1cc(-c2cc(C)cc(Cl)c2)c(F)cc1-n1c2c(ccc1=O)CN(S(=O)(=O)Nc1cccnn1)CC2 [Example 69]", "IC50 / µM": 0.0228}

---

# TARGET_SYSTEM: human Nav1.7 (Homo sapiens, UniProt Q15858)
# Construct: expressed in transfected cells; host or cells: HEK293
# RUN_DESCRIPTION: Nav 1.7 IWB In Vitro Assay (IonWorks Barracuda)
# Type: cell-based
# SETTINGS: HEK293 cells stably transfected with human Nav 1.7; IonWorks Barracuda population patch-clamp; cells clamped to −20 mV for 4 minutes with compound; 26th pulse; read-out: hNav1.7 IWB IC50
OBSERVABLE: IC50 (nM)

{"MOLECULE": "COc1cc(-c2cc(F)cc(F)c2)c(F)cc1-n1c2c(ccc1=O)CN(S(=O)(=O)Nc1ncc(F)cn1)CC2 (racemic) [Example 10-(Rac)]", "OBSERVABLE": "IC50", "READOUT_NUMBER": 163}
{"MOLECULE": "COc1cc(-c2ccc(Cl)c(C)c2)c(F)cc1-n1c2c(ccc1=O)CN(S(=O)(=O)Nc1cc(C)ncn1)CC2 (racemic)", "OBSERVABLE": "IC50", "READOUT_NUMBER": 42.3}
{"MOLECULE": "COc1cc(-c2ccc(C)c(F)c2)c(F)cc1-n1c2c(ccc1=O)CN(S(=O)(=O)Nc1ccon1)CC2 (single isomer, unassigned) [Example 21-M]", "OBSERVABLE": "IC50", "READOUT_NUMBER": 1550}

---

# TARGET_SYSTEM: human Nav1.7 (Homo sapiens)
# Construct: expressed in transfected cells; host or cells: HEK293
# RUN_DESCRIPTION: Nav 1.7 IWB In Vitro Assay (IonWorks Barracuda)
# Assay type: cell-based
# SETTINGS: HEK293 cells stably transfected with human Nav 1.7; IonWorks Barracuda population patch-clamp; cells clamped to −20 mV for 4 minutes with compound; 26th pulse; read-out: hNav1.7 IWB IC50
OBSERVABLE: IC50 (nM)

{"MOLECULE": "COc1cc(-c2ccc(OC)c(C(F)(F)F)c2)c(F)cc1-n1c2c(ccc1=O)CN(S(=O)(=O)Nc1cccnn1)CC2", "TARGET_SYSTEM": "human Nav1.7 (Homo sapiens)", "SIGN": "=", "READOUT_NUMBER": 25.8}
{"MOLECULE": "COc1cc(-c2ccc(F)c(F)c2)c(F)cc1-n1c2c(ccc1=O)CN(S(=O)(=O)Nc1cccnn1)CC2 (single isomer, unassigned) [Example 32-P]", "TARGET_SYSTEM": "human Nav1.7 (Homo sapiens)", "SIGN": "=", "READOUT_NUMBER": 17.5}
{"MOLECULE": "COc1cc(-c2ccc(F)c(C)c2)c(F)cc1-n1c2c(ccc1=O)CN(S(=O)(=O)Nc1ncccn1)CC2 (single isomer, unassigned) [Example 29-P]", "TARGET_SYSTEM": "human Nav1.7 (Homo sapiens)", "SIGN": "=", "READOUT_NUMBER": 55.5}
{"MOLECULE": "COc1cc(CCC(F)(F)F)c(F)cc1-n1c2c(ccc1=O)CN(S(=O)(=O)Nc1ccon1)CC2", "TARGET_SYSTEM": "human Nav1.7 (Homo sapiens)", "SIGN": "=", "READOUT_NUMBER": 33.5}
{"MOLECULE": "COc1cc(-c2cc(F)cc(F)c2)c(F)cc1-n1c2c(ccc1=O)CN(S(=O)(=O)Nc1ccon1)[C@H](C)C2 [Example 3-D-M]", "TARGET_SYSTEM": "human Nav1.7 (Homo sapiens)", "SIGN": ">", "READOUT_NUMBER": 7500}
{"MOLECULE": "COc1cc(-c2ccc(F)c(F)c2)c(F)cc1-n1c2c(ccc1=O)CN(S(=O)(=O)Nc1ncccn1)CC2 (single isomer, unassigned) [Example 28-M]", "TARGET_SYSTEM": "human Nav1.7 (Homo sapiens)", "SIGN": ">", "READOUT_NUMBER": 10000}
{"MOLECULE": "COc1cc(Br)c(Cl)cc1-n1c2c(ccc1=O)CN(S(=O)(=O)Nc1ccon1)CC2 (racemic) [Preparation 8c]", "TARGET_SYSTEM": "human Nav1.7 (Homo sapiens)", "SIGN": "=", "READOUT_NUMBER": 2880}
{"MOLECULE": "COc1cc(-c2cc(F)cc(C(F)(F)F)c2)c(F)cc1-n1c2c(ccc1=O)CN(S(=O)(=O)Nc1cccnn1)CC2", "TARGET_SYSTEM": "human Nav1.7 (Homo sapiens)", "SIGN": "=", "READOUT_NUMBER": 1.8}
{"MOLECULE": "COc1ccc(C(F)(F)F)cc1-c1cc(OC)c(-n2c3c(ccc2=O)CN(S(=O)(=O)Nc2cccnn2)CC3)cc1F", "TARGET_SYSTEM": "human Nav1.7 (Homo sapiens)", "SIGN": "=", "READOUT_NUMBER": 7.7}
{"MOLECULE": "COc1cc(Br)c(Cl)cc1-n1c2c(ccc1=O)CN(S(=O)(=O)Nc1ccon1)CC2 (single isomer, unassigned) [Preparation 8c-P]", "TARGET_SYSTEM": "human Nav1.7 (Homo sapiens)", "SIGN": "=", "READOUT_NUMBER": 768}
{"MOLECULE": "COc1cc(-c2cc(F)cc(Cl)c2)ccc1-n1c2c(ccc1=O)CN(S(=O)(=O)Nc1cccnn1)CC2 (single isomer, unassigned) [Example 8-P]", "TARGET_SYSTEM": "human Nav1.7 (Homo sapiens)", "SIGN": "=", "READOUT_NUMBER": 25.9}
{"MOLECULE": "COc1cc(-c2cc(C(F)(F)F)cnc2OC)c(F)cc1-n1c2c(ccc1=O)CN(S(=O)(=O)Nc1cccnn1)CC2", "TARGET_SYSTEM": "human Nav1.7 (Homo sapiens)", "SIGN": "=", "READOUT_NUMBER": 1.9}
{"MOLECULE": "COc1cc(-c2ccc(F)c(F)c2)c(F)cc1-n1c2c(ccc1=O)CN(S(=O)(=O)Nc1cccnn1)CC2 (single isomer, unassigned) [Example 32-M]", "TARGET_SYSTEM": "human Nav1.7 (Homo sapiens)", "SIGN": "=", "READOUT_NUMBER": 1000}
